Values were extracted from PubChem BioAssay AID2060891.

# Tested on: K98450-129-R-PDC complex spheroid growth, percent test/control
# Protocol text: Anticancer human tumor K98450-129-R-PDC patient-derived colon adenocarcinoma cell line growth inhibition [RAS]
# Particulars: second compound 0.003 µM; first compound 0.0316 µM; active compounds read low
Measure name: viability, T/C

>>> result("Cc1nc(N2CCC3(CC2)COC(C)C3N)c(CO)nc1Sc1ccnc(N)c1Cl (centres undefined) + CCn1c(-c2cccnc2C(C)OC)c2c3cc(ccc31)N1CCOC(CC(NC(=O)C(C(C)C)N(C)C(=O)C3(F)CCN(C(=O)C#CC(C)(C)N(C)C)CC3)C(=O)N3CCCC(N3)C(=O)OCC(C)(C)C2)C1")
"53.4%"

Enquiry: Could you share which viability, T/C value was measured for O=C(c1ccc(F)c(F)c1Nc1ccc(I)cc1F)N1CC(O)([C@@H]2CCCCN2)C1 + CCn1c(-c2cc(N3CCN(C)CC3)cnc2C(C)OC)c2c3cc(ccc31)-c1csc(n1)CC(NC(=O)C1CC1C)C(=O)N1CCCC(N1)C(=O)OCC(C)(C)C2 ?
Return: 63.2%

Enquiry: Endpoint output: viability, T/C of NC1c2ccccc2OC12CCN(c1cnc3c(N4CCCc5ncccc54)n[nH]c3n1)CC2 (centres undefined) + CCn1c(-c2cccnc2C(C)OC)c2c3cc(ccc31)N1CCOC(CC(NC(=O)C(C(C)C)N(C)C(=O)C3(F)CCN(C(=O)C#CC(C)(C)N(C)C)CC3)C(=O)N3CCCC(N3)C(=O)OCC(C)(C)C2)C1 . Value?
Return: 21.5%

Enquiry: Name the reported viability, T/C value associated with the compound CC(C)NCC(C(=O)N1CCN(c2ncnc3c2C(C)CC3O)CC1)c1ccc(Cl)cc1 (centres undefined) + CCn1c(-c2cc(N3CCN(C)CC3)cnc2C(C)OC)c2c3cc(ccc31)-c1csc(n1)CC(NC(=O)C1CC1C)C(=O)N1CCCC(N1)C(=O)OCC(C)(C)C2
Return: 90.7%

---

# System: K98450-129-R-PDC complex spheroid growth, percent test/control
# Protocol text: Anticancer human tumor K98450-129-R-PDC cell line growth inhibition [RAS];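 note: luminescence used as a proxy for viable cell amount; spheroids exposed to agents for seven days before the viability readout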
# Particulars: second compound 0.3 µM; first compound 10 µM; active compounds read low
Listed below: viability, T/C values for each entry.
Give the value in % but do not write % after it.

>>> quantitative_readout("CC(C)NCC(C(=O)N1CCN(c2ncnc3c2C(C)CC3O)CC1)c1ccc(Cl)cc1 (configuration not stated) + CCn1c(-c2cc(N3CCN(C)CC3)cnc2C(C)OC)c2c3cc(ccc31)-c1csc(n1)CC(NC(=O)C1CC1C)C(=O)N1CCCC(N1)C(=O)OCC(C)(C)C2")
7.13

Consider the record given below.
Enquiry: Identify the measured viability, T/C of NC1c2ccccc2OC12CCN(c1cnc3c(N4CCCc5ncccc54)n[nH]c3n1)CC2 (configuration not stated) + CCn1c(-c2cc(N3CCN(C)CC3)cnc2C(C)OC)c2c3cc(ccc31)-c1csc(n1)CC(NC(=O)C1CC1C)C(=O)N1CCCC(N1)C(=O)OCC(C)(C)C2 for K98450-129-R-PDC complex spheroid growth, percent test/control.
Return: 5.88

---

Consider the following molecules and their measured viability, T/C readings.
# System: K98450-129-R-PDC complex spheroid growth, percent test/control
# Protocol text: Anticancer human tumor K98450-129-R-PDC cell line growth inhibition [RAS];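 note: luminescence used as a proxy for viable cell amount; spheroids exposed to agents for seven days before the viability readout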
# Particulars: second compound 0.000949 µM; first compound 0.003 µM; active compounds read low
Response body: numeric value in %, unit text excluded.

Enquiry: For the molecule shown here, CC1(C)CCC(Nc2ncc(C(F)(F)F)c(-c3c[nH]c4c(P(C)(C)=O)c(C#N)ccc34)n2)CN1 (centres undefined) + CCn1c(-c2cc(N3CCN(C)CC3)cnc2C(C)OC)c2c3cc(ccc31)-c1csc(n1)CC(NC(=O)C1CC1C)C(=O)N1CCCC(N1)C(=O)OCC(C)(C)C2 , give the reported viability, T/C.
Return: 82.2

---

# System: K98450-129-R-PDC complex spheroid growth, percent test/control
# Protocol text: Anticancer human tumor K98450-129-R-PDC cell line growth inhibition [RAS];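 note: luminescence used as a proxy for viable cell amount; spheroids exposed to agents for seven days before the viability readout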
# Particulars: second compound 0.003 µM; first compound 0.0316 µM; active compounds read low
Measure name: viability, T/C

Illustrative cases are given below, each with its answer.
>>> result("CC1(O)CCCC1n1c(=O)c(C(F)F)cc2cnc(NC3CCN(S(C)(=O)=O)CC3)nc21 (configuration not stated) + CCn1c(-c2cc(N3CCN(C)CC3)cnc2C(C)OC)c2c3cc(ccc31)-c1csc(n1)CC(NC(=O)C1CC1C)C(=O)N1CCCC(N1)C(=O)OCC(C)(C)C2")
"81.7%"
>>> result("CCC(CC)c1cc(NC2CCC(N)C2)n2nccc2n1 (configuration not stated) + CCn1c(-c2cc(N3CCN(C)CC3)cnc2C(C)OC)c2c3cc(ccc31)-c1csc(n1)CC(NC(=O)C1CC1C)C(=O)N1CCCC(N1)C(=O)OCC(C)(C)C2")
"91.7%"
>>> result("CC(=O)OC12COC1CC(O)C1(C)C(=O)C(O)C3=C(C)C(OC(=O)C(O)C(NC(=O)OC(C)(C)C)c4ccccc4)CC(O)(C(OC(=O)c4ccccc4)C21)C3(C)C (configuration not stated) + CCn1c(-c2cccnc2C(C)OC)c2c3cc(ccc31)N1CCOC(CC(NC(=O)C(C(C)C)N(C)C(=O)C3(F)CCN(C(=O)C#CC(C)(C)N(C)C)CC3)C(=O)N3CCCC(N3)C(=O)OCC(C)(C)C2)C1")
"52.4%"

Enquiry: // lookup viability, T/C for Cc1nc(N2CCC3(CC2)COC(C)C3N)c(CO)nc1Sc1ccnc(N)c1Cl (configuration not stated) + CCn1c(-c2cc(N3CCN(C)CC3)cnc2C(C)OC)c2c3cc(ccc31)-c1csc(n1)CC(NC(=O)C1CC1C)C(=O)N1CCCC(N1)C(=O)OCC(C)(C)C2
Return: 89%

Enquiry: So what's the measured viability, T/C for this one? C=CC(=O)Nc1cc(Nc2nccc(-c3cn(C)c4ccccc34)n2)c(OC)cc1N(C)CCN(C)C + CCn1c(-c2cccnc2C(C)OC)c2c3cc(ccc31)N1CCOC(CC(NC(=O)C(C(C)C)N(C)C(=O)C3(F)CCN(C(=O)C#CC(C)(C)N(C)C)CC3)C(=O)N3CCCC(N3)C(=O)OCC(C)(C)C2)C1
Return: 48.8%

Enquiry: Name the reported viability, T/C value associated with the molecule CC1(O)CCCC1n1c(=O)c(C(F)F)cc2cnc(NC3CCN(S(C)(=O)=O)CC3)nc21 (configuration not stated) + CCn1c(-c2cccnc2C(C)OC)c2c3cc(ccc31)N1CCOC(CC(NC(=O)C(C(C)C)N(C)C(=O)C3(F)CCN(C(=O)C#CC(C)(C)N(C)C)CC3)C(=O)N3CCCC(N3)C(=O)OCC(C)(C)C2)C1
Return: 58.2%

Enquiry: viability, T/C for CC(=O)OC12COC1CC(O)C1(C)C(=O)C(O)C3=C(C)C(OC(=O)C(O)C(NC(=O)OC(C)(C)C)c4ccccc4)CC(O)(C(OC(=O)c4ccccc4)C21)C3(C)C (configuration not stated) + CCn1c(-c2cc(N3CCN(C)CC3)cnc2C(C)OC)c2c3cc(ccc31)-c1csc(n1)CC(NC(=O)C1CC1C)C(=O)N1CCCC(N1)C(=O)OCC(C)(C)C2 ?
Return: 95.8%

---

Each item that follows carries a reported viability, T/C.
# Test system: K98450-129-R-PDC complex spheroid growth, percent test/control
# Protocol text: Anticancer human tumor K98450-129-R-PDC cell line growth inhibition [RAS];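 note: luminescence used as a proxy for viable cell amount; spheroids exposed to agents for seven days before the viability readout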
# Particulars: second compound 0.00316 µM; first compound 3.16 µM; active compounds read low

Enquiry: Please provide the recorded viability, T/C for CC(=O)OC12COC1CC(O)C1(C)C(=O)C(O)C3=C(C)C(OC(=O)C(O)C(NC(=O)OC(C)(C)C)c4ccccc4)CC(O)(C(OC(=O)c4ccccc4)C21)C3(C)C (centres undefined) + C=CC(=O)N1CCN(c2nc(OCC3CCCN3C)nc3c(F)c(-c4nc(N)cc(C)c4C(F)(F)F)c(Cl)cc23)C(C)C1 , tested on K98450-129-R-PDC complex spheroid growth, percent test/control.
Return: 23.6%

Enquiry: Record lookup: for K98450-129-R-PDC complex spheroid growth, percent test/control, what viability, T/C belongs to CC1(O)CCCC1n1c(=O)c(C(F)F)cc2cnc(NC3CCN(S(C)(=O)=O)CC3)nc21 (centres undefined) + C=CC(=O)N1CCN(c2nc(OCC3CCCN3C)nc3c(F)c(-c4nc(N)cc(C)c4C(F)(F)F)c(Cl)cc23)C(C)C1 ?
Return: 56.2%

Enquiry: Find the measured viability, T/C: item Cc1nc(N2CCC3(CC2)COC(C)C3N)c(CO)nc1Sc1ccnc(N)c1Cl (centres undefined) + C=CC(=O)N1CCN(c2nc(OCC3CCCN3C)nc3c(F)c(-c4nc(N)cc(C)c4C(F)(F)F)c(Cl)cc23)C(C)C1 , target or system K98450-129-R-PDC complex spheroid growth, percent test/control.
Return: 10.5%

Enquiry: Provide the documented viability, T/C with K98450-129-R-PDC complex spheroid growth, percent test/control as the system for NC1c2ccccc2OC12CCN(c1cnc3c(N4CCCc5ncccc54)n[nH]c3n1)CC2 (centres undefined) + C=CC(=O)N1CCN(c2nc(OCC3CCCN3C)nc3c(F)c(-c4nc(N)cc(C)c4C(F)(F)F)c(Cl)cc23)C(C)C1
Return: 6.2%
